targetOrTestSystem: Human factor Xa (Homo sapiens, UniProt P00742)
Sequence (P00742 235-488 limits assumed): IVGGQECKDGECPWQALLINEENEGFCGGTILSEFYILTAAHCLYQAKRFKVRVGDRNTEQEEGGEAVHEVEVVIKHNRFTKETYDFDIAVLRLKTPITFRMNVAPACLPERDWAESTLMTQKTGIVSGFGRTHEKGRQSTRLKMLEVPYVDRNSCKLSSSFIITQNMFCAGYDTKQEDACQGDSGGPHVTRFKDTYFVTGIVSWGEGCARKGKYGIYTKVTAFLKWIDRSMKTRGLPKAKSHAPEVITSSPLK
Sequence (P00742 41-179 limits assumed): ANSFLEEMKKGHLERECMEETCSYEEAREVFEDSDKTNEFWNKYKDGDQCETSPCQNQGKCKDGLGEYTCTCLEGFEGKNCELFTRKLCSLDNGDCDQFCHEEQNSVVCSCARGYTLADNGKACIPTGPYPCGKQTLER
assay: Xa Assay
assayEndpoint: IC50 (µM)

These recorded examples may help you get a feel for the data.
N=C(N)NCCC[C@H](NC(=O)Cn1c(Cc2ccccc2)cnc(NCCc2ccccc2)c1=O)C(=O)c1nccs1	3
N=C(N)c1ccc(CNC(=O)Cn2c(-c3ccccc3)c(Cl)nc(NCc3ccc(C(=N)N)cc3)c2=O)cc1	9.68
N=C(N)NCCCNc1nc(Cl)c(-c2ccccc2)n(CC(=O)NCc2ccc(C(=N)N)cc2)c1=O	10.6

[a] N=C(N)NCCC[C@H](NC(=O)Cn1c(-c2ccccc2)c(Cl)nc(NCCc2ccccc2)c1=O)C(=O)c1nccs1
[b] N=C(N)c1ccc(CNC(=O)Cn2c(-c3ccccc3)c(Cl)nc(NCc3cccc(C(=N)N)c3)c2=O)cc1
Lookup: For the pair a and b , which member has the lower IC50 number? Indicate your choice by writing its label.
Found: a
(a: 1 µM, b: 24 µM)

[a] N=C(N)NCCC[C@H](NC(=O)Cn1c(CCc2ccccc2)cnc(NCCc2ccccc2)c1=O)C(=O)c1nccs1
[b] N=C(N)NCCC[C@H](NC(=O)Cn1c(CCc2ccccc2)c(Cl)nc(NCCc2ccccc2)c1=O)C(=O)c1nccs1
[c] N=C(N)NCCCCNc1nc(Cl)c(-c2ccccc2)n(CC(=O)NCc2ccc(C(=N)N)cc2)c1=O
Lookup: Put the items in order so that reported IC50 rises from first to last. Would you mind listing the labels in the order requested?
Found: a, b, c
(a: 1 µM, b: 4 µM, c: 28.9 µM)
